Values from the Human Domainome abundance scans (Beltran et al. 2025)

B1: FERM and PDZ domain-containing protein 4, residues 75 to 154; numbered along this chain, Q14CM0 (parent)
chain: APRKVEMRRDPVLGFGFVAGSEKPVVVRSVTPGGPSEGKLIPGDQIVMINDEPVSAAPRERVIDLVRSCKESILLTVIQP

Variants of: B1
Test: abundance fitness (aPCA) (normalised: wild type 0, dead -1); higher = more abundant; growth selection in yeast, the domain comes from the species named
Conditions: Homo sapiens
Reported abundance fitness values follow for various variants

{"VARIANT_IDENTIFIER": "K39E", "abundance fitness": -0.135}
{"VARIANT_IDENTIFIER": "V12C", "abundance fitness": -0.056}
{"VARIANT_IDENTIFIER": "P58T", "abundance fitness": -0.029}
{"VARIANT_IDENTIFIER": "I73L", "abundance fitness": -0.023}
